# Tested on: HeLa
# test.description: Anti viral activity against human rhinovirus (HRV) in H1HeLa cells
# Type: functional, cell-based
Catalogue of molecules with associated EC50
metric: EC50

| record.smiles | recorded.value |
| --- | --- |
| CCOC(=O)/C=C/[C@H](CCC(N)=O)NC(=O)[C@H](Cc1ccc(F)cc1)OC(=O)[C@@H](NC(=O)SC1CCCC1)C(C)C | 1000 nM |
| CCOC(=O)/C=C/[C@H](CCC(N)=O)NC(=O)[C@@H](CC(=O)[C@@H](NC(=O)SC1CCCC1)C(C)C)Cc1ccc(F)cc1 | 20 nM |
| CCOC(=O)/C=C/[C@H](CCC(N)=O)NC(=O)[C@H](Cc1ccc(F)cc1)NC(=O)[C@@H](NC(=O)SC1CCCC1)C(C)C | 190 nM |

Data credit: ChEMBL document CHEMBL1133803
